# system name: T1, Cyno TL1A (cyno, UniProt G7PRK8 72-251)
# T1 sequence: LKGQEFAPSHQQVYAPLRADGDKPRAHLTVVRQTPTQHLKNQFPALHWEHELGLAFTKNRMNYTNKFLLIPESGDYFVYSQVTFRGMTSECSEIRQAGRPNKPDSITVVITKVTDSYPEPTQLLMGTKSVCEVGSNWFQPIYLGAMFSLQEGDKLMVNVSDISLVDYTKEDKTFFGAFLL
# assay summary: SPR, Fab format, average
assay endpoint: Kd (nM)
Number in nM, nothing else.

Below are worked cases with known answers.
binder	Kd [nM]
Antibody 13 (Fab format) (Fab, V domains shown, High priority lead, Fab format) VH: QVQLQESGPGLVRPSQTLSLTCTVSGFDYQDTYMHWVRQRPGRGLEWMGRIDPASGHTKYNPSLKSRVTITRDTSKNQVSLRLSSVTAADTAVYYCAVSGGMPDVWGQGSLVTVSS VL: DIQMTQSPSSLSASVGDRVTITCRASQGVEYMYWYQQKPGKAPKLLIYATSNLASGVPSRFSGSGSGTDFTFTISSLQPEDIATYYCQQWEGNPRTFGQGTKVEIK	0.34
Antibody 12 (Fab format) (Fab, V domains shown, High priority lead, Fab format) VH: QVQLQESGPGLVRPSQTLSLTCTVSGFDITDTYMHWVRQRPGRGLEWMGRIEPAGGHTKYNPSLKSRVTITRDTSKNQVSLRLSSVTAADTAVYYCVRSGGLPDVWGQGSLVTVSS VL: DIQMTQSPSSLSASVGDRVTITCRASQGVEYMYWYQQKPGKAPKLLIYSASNLASGVPSRFSGSGSGTDFTFTISSLQPEDIATYYCQQWEGNPRTFGQGTKVEIK	1.29
Antibody 14 (Fab format) (Fab, V domains shown, High priority lead, Fab format) VH: QVQLQESGPGLVRPSQTLSLTCTVSGLDPDDTYMHWVRQRPGRGLEWMGRIEPAGGHTKYNPSLKSRVTITRDTSKNQVSLRLSSVTAADTAVYYCVISGGLPDVWGQGSLVTVSS VL: DIQMTQSPSSLSASVGDRVTITCRASQGIYYMYWYQQKPGKAPKLLIYGASNLASGVPSRFSGSGSGTDFTFTISSLQPEDIATYYCQQWEGNPRTFGQGTKVEIK	4.25
Antibody 10 (Fab format) (Fab, V domains shown, High priority lead, Fab format) VH: QVQLQESGPGLVRPSQTLSLTCTVSGLDPDDTYMHWVRQRPGRGLEWMGRIEPAGGHTKYNPSLKSRVTITRDTSKNQVSLRLSSVTAADTAVYYCVISGGLPDVWGQGSLVTVSS VL: DIQMTQSPSSLSASVGDRVTITCRASQGVEYMYWYQQKPGKAPKLLIYGASNLASGVPSRFSGSGSGTDFTFTISSLQPEDIATYYCQQWEGNPRTFGQGTKVEIK	1.83
Antibody 7 (Fab format) (Fab, V domains shown, High priority lead, Fab format) VH: QVQLQESGPGLVRPSQTLSLTCTVSGFDMGDTYMHWVRQRPGRGLEWMGRIEPAAGHTKYNPSLKSRVTITRDTSKNQVSLRLSSVTAADTAVYYCVRSGGLPDIWGQGSLVTVSS VL: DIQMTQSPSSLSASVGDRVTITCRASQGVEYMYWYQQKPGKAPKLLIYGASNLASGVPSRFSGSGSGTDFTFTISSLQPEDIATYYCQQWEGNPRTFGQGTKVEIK	1.63
Antibody 8 (Fab format) (Fab, V domains shown, High priority lead, Fab format) VH: QVQLQESGPGLVRPSQTLSLTCTVSGFDMQSTYMHWVRQRPGRGLEWMGRIEPAGGHTKYNPSLKSRVTITRDTSKNQVSLRLSSVTAADTAVYYCVRSGGLPDVWGQGSLVTVSS VL: DIQMTQSPSSLSASVGDRVTITCRASSSVSYMYWYQQKPGKAPKLLIYGASNLASGVPSRFSGSGSGTDFTFTISSLQPEDIATYYCQQWEGNPRTFGQGTKVEIK	3.26
Antibody 1 (Fab format) (Fab, V domains shown, High priority lead, Fab format; also called Lead #1) VH: QVQLQESGPGLVRPSQTLSLTCTVSGFDIQDTYMHWVRQRPGRGLEWMGRIEPAGGHTKYNPSLKSRVTITRDTSKNQVSLRLSSVTAADTAVYYCASSGGMPDLWGQGSLVTVSS VL: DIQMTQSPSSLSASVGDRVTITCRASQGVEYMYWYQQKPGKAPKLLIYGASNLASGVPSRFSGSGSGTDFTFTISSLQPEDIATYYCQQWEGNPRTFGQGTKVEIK	0.17
Antibody 3 (Fab format) (Fab, V domains shown, High priority lead, Fab format) VH: QVQLQESGPGLVRPSQTLSLTCTVSGFDIQDTYMHWVRQRPGRGLEWMGRIEPAGGHTKYNPSLKSRVTITRDTSKNQVSLRLSSVTAADTAVYYCVRSGGLPDAWGQGSLVTVSS VL: DIQMTQSPSSLSASVGDRVTITCRASQGVRYMYWYQQKPGKAPKLLIYGASNLASGVPSRFSGSGSGTDFTFTISSLQPEDIATYYCQQWEGNPRTFGQGTKVEIK	0.62

-- ask Look up Kd for this binder: Antibody 4 (Fab format) (Fab, V domains shown, High priority lead, Fab format) VH: QVQLQESGPGLVRPSQTLSLTCTVSGFDMADTYMHWVRQRPGRGLEWMGRIEPAGGHTKYNPSLKSRVTITRDTSKNQVSLRLSSVTAADTAVYYCVRSGGLPDMWGQGSLVTVSS VL: DIQMTQSPSSLSASVGDRVTITCRASSSVSYMYWYQQKPGKAPKLLIYGASNLASGVPSRFSGSGSGTDFTFTISSLQPEDIATYYCQQWEGNPRTFGQGTKVEIK
-- reply 0.16

-- ask Repeat with Antibody 17 (Fab format) (Fab, V domains shown, High priority lead, Fab format) VH: QVQLQESGPGLVRPSQTLSLTCTVSGFDMGDTYMHWVRQRPGRGLEWMGRIEPAAGHTKYNPSLKSRVTITRDTSKNQVSLRLSSVTAADTAVYYCVRSGGLPDVWGQGSLVTVSS VL: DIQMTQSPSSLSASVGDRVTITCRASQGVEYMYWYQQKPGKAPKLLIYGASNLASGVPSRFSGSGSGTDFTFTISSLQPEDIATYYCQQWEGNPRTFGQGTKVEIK
-- reply 0.33

Every entry's value here was drawn from patent US20250109209A1.
